Each recorded value in this set is attributed to ChEMBL document CHEMBL3217456.

# Target Or System: Histamine H2 receptor (Homo sapiens, UniProt P25021)
# Sequence (P25021 whole entry, the tested form may be a part): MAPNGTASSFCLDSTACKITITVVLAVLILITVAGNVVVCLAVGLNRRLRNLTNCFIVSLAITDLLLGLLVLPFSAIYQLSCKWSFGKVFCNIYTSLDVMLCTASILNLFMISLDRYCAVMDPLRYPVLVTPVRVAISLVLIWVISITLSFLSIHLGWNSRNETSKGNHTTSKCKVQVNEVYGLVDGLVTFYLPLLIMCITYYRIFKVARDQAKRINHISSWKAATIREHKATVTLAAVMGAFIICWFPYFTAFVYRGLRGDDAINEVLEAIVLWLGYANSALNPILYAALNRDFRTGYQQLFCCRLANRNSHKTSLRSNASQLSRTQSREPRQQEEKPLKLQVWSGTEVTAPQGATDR
# Assay Protocol: Intrinsic activity at human recombinant histamine H2 receptor-Gsalphas fusion protein expressed in Sf9 cells preincubated for 2 mins before [gamma32P]GTP addition measured after 20 mins by steady-state GTPase activity assay relative to histamine
Observed Property: Intrinsic activity

- Compound: "CC(CC(=O)/N=C(\\N)NCCCc1ccc(CN(C)C)o1)c1ccccc1 (stereo unspecified)"
  Reported Measurement: -0.12
- Compound: "CC(CC(=O)/N=C(\\N)NCCCc1ccccn1)c1ccccc1 (stereo unspecified)"
  Reported Measurement: 0.3
- Compound: "CC(CC(=O)/N=C(\\N)NCCCc1cccnc1)c1ccccc1 (stereo unspecified)"
  Reported Measurement: -0.11
- Compound: "CC(CC(=O)/N=C(\\N)NCCCc1c[nH]cn1)c1ccccc1 (stereo unspecified)"
  Reported Measurement: 0.87
- Compound: "N/C(=N\\C(=O)CC(c1ccccc1)c1ccccc1)NCCCc1ncc[nH]1"
  Reported Measurement: -0.04
- Compound: "CC(CC(=O)/N=C(\\N)NCCCc1ncc[nH]1)c1cccs1 (stereo unspecified)"
  Reported Measurement: 0.04
